Test system: DIPGX37 (H3.3 K27M diffuse intrinsic pontine glioma line)
measurement-protocol: maximal growth inhibition (yFin) relative to DMSO / staurosporine; higher = more efficacious
assay-endpoint: maximal growth inhibition (%)
Use % as the unit, but write only the number.

Examples with their reported maximal growth inhibition follow.
compound: O=C(Nc1ccc([N+](=O)[O-])cc1Cl)c1cc(Cl)ccc1O [NICOLSAMIDE]
maximal growth inhibition / %: 81.9
//
compound: CC(C)(C)c1cnc(CSc2cnc(NC(=O)C3CCNCC3)s2)o1
maximal growth inhibition / %: 86.8
//
compound: Cc1nc(-c2cccnc2)sc1C(=O)Nc1ccccc1-c1cn2c(CN3CCOCC3)csc2n1
maximal growth inhibition / %: 68.5

Next compound, maximal growth inhibition to be filled in.
Supply measured maximal growth inhibition of CC[C@@]1(O)C[C@H](O[C@H]2C[C@H](N(C)C)[C@H](O[C@H]3C[C@H](O)[C@H](O[C@H]4CCC(=O)[C@H](C)O4)[C@H](C)O3)[C@H](C)O2)c2c(cc3c(c2O)C(=O)c2c(O)cccc2C3=O)[C@H]1C(=O)OC in your reply.
62.1
